# Tested on: Staphylococcus epidermidis
# assay_protocol: Antibacterial activity against Staphylococcus epidermidis ATCC 12228 assessed as concentration required to inhibit bacterial growth after 24 hrs by TLC assay
# Type: functional

# compound, target_desc, Activity
records = [
    ("COC(=O)[C@H](CC(C)C)NC(=O)[C@@H](NC(=O)[C@H](CC(C)C)N(C)C)[C@@H](Oc1ccc(C=O)cc1)c1ccccc1 (mixture of isomers)", "Staphylococcus epidermidis", "<50 µg"),
    ("CC[C@H](C)[C@H](NC(=O)[C@H]([C@@H](Oc1ccc(C=O)cc1)c1ccccc1)N1CN(C)[C@@H](CC(C)C)C1=O)C(=O)OC (mixture of isomers)", "Staphylococcus epidermidis", "<50 µg"),
    ("CC[C@H](C)[C@H](NC(=O)[C@H](NC(=O)[C@H](CC(C)C)N(C)C)[C@@H](O)c1ccccc1)C(=O)OC (mixture of isomers)", "Staphylococcus epidermidis", "<50 µg"),
    ("CC(C)C[C@@H]1NC(=O)[C@@H](NC(=O)[C@H](CC(C)C)N(C)C)[C@H](c2ccccc2)Oc2ccc(cc2)/C=C\\NC1=O (mixture of isomers)", "Staphylococcus epidermidis", ">50 µg"),
    ("CC[C@H](C)[C@H](NC(=O)[C@@H]([C@H](Oc1ccc(C=O)cc1)c1ccccc1)N1CN(C)[C@@H](CC(C)C)C1=O)C(=O)OC (mixture of isomers)", "Staphylococcus epidermidis", "<50 µg"),
    ("COC(=O)[C@H](CC(C)C)NC(=O)[C@H](NC(=O)[C@@H](N)CC(C)C)[C@@H](O)c1ccccc1", "Staphylococcus epidermidis", "<50 µg"),
]

----------
# Tested on: Staphylococcus epidermidis
# assay_protocol: Antibacterial activity against Staphylococcus epidermidis ATCC 12228 assessed as concentration required to inhibit bacterial growth after 24 hrs by TLC assay
# Format: functional
Known Activity of a selection of molecules
measured_attribute: Activity

# molecule, test_result
measured = [
    ("COC(=O)[C@H](Cc1ccccc1)NC(=O)[C@@H]([C@H](Oc1ccc(C=O)cc1)c1ccccc1)N1CN(C)[C@@H](CC(C)C)C1=O (mixture of isomers)", "<50 µg"),
    ("COC(=O)[C@H](Cc1ccccc1)NC(=O)[C@H]([C@H](O)c1ccccc1)N1CN(C)[C@@H](CC(C)C)C1=O", "50 µg"),
    ("COC(=O)[C@H](Cc1ccccc1)NC(=O)[C@H](NC(=O)[C@@H](N)CC(C)C)[C@@H](O)c1ccccc1 (mixture of isomers)", "3.1 µg"),
    ("COC(=O)[C@H](CC(C)C)NC(=O)[C@H](NC(=O)[C@H](CC(C)C)NC(=O)OCc1ccccc1)[C@@H](O)c1ccccc1 (mixture of isomers)", "<50 µg"),
    ("COC(=O)[C@H](CC(C)C)NC(=O)[C@H]([C@@H](Oc1ccc(C=O)cc1)c1ccccc1)N1CN(C)[C@@H](CC(C)C)C1=O (mixture of isomers)", "<50 µg"),
    ("COC(=O)[C@H](Cc1ccccc1)NC(=O)[C@@H]([C@@H](O)c1ccccc1)N1CN(C)[C@@H](CC(C)C)C1=O (mixture of isomers)", "6.2 µg"),
]

----------
# Test system: Staphylococcus epidermidis
# assay_protocol: Antibacterial activity against Staphylococcus epidermidis ATCC 12228 assessed as concentration required to inhibit bacterial growth after 24 hrs by TLC assay
# Assay type: functional

# compound, Activity
records = [
    ("COC(=O)[C@H](Cc1ccccc1)NC(=O)[C@@H](NC(=O)[C@H](CC(C)C)N(C)C)[C@@H](Oc1ccc(C=O)cc1)c1ccccc1 (mixture of isomers)", "<50 µg"),
    ("COC(=O)[C@H](CC(C)C)NC(=O)[C@@H]([C@@H](O)c1ccccc1)N1CN(C)[C@@H](CC(C)C)C1=O (mixture of isomers)", "<50 µg"),
    ("COC(=O)[C@H](CC(C)C)NC(=O)[C@H](NC(=O)[C@H](CC(C)C)N(C)C)[C@H](Oc1ccc(C=O)cc1)c1ccccc1 (mixture of isomers)", "<50 µg"),
    ("COC(=O)[C@H](Cc1ccccc1)NC(=O)[C@H](NC(=O)[C@H](CC(C)C)N(C)C)[C@@H](O)c1ccccc1", "<50 µg"),
    ("CC[C@H](C)[C@H](NC(=O)[C@H](NC(=O)[C@H](CC(C)C)N(C)C)[C@H](Oc1ccc(C=O)cc1)c1ccccc1)C(=O)OC", "<50 µg"),
    ("COC(=O)[C@H](Cc1ccccc1)NC(=O)[C@@H](NC(=O)[C@@H](N)CC(C)C)[C@H](O)c1ccccc1", ">50 µg"),
]
